Please go through the items and note down their cell number.
- System: TDF;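 further: TDF denotes transformed human dermal fibroblasts of mesenchymal origin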
- TEST NAME: cell number relative to DMSO (% of DMSO); higher = more cells (less growth inhibition / toxicity)
- EXPERIMENTAL PARAMETERS: concentration: 10 µM; 24 h
Numbers only.

// worked examples, cell number included
CSc1cccc(Nc2ncc3cc(-c4c(Cl)cccc4Cl)c(=O)n(C)c3n2)c1 :: 6.26
CC(C)(C)NCC(O)COc1cccc2[nH]c(=O)[nH]c12.Cl (racemic) :: 110
Cc1ncc([N+](=O)[O-])n1CCO [Metronidazole] :: 104
Br.Br.N=C(N)SCCN [2-(2-Aminoethyl)isothiourea dihydrobromide] :: 85.8

Could you now look at the following compound, please?
-- ask Need cell number, item CN(C)CCN(Cc1cccs1)c1ccccn1.Cl [Methapyrilene hydrochloride]
-- reply 95.7

* * *

- System: HCC1569;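 further: TDF is a line of transformed human dermal fibroblasts of mesenchymal origin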
- TEST NAME: H1.0 immunofluorescence intensity relative to DMSO (% of DMSO); higher = stronger H1.0 induction, active = 140 or more
- EXPERIMENTAL PARAMETERS: concentration: 10 µM; 24 h
Please go through the items and note down their H1.0 immunofluorescence intensity.
One number for each entry.

Please give H1.0 immunofluorescence intensity for each item listed below.
1. CC(C(=O)O)c1ccc(-c2ccccc2)c(F)c1 (stereo unspecified)
2. O=S(=O)(O)C1CCNCC1
3. NC(Cc1ccc(Cl)cc1)C(=O)O (racemic)
4. CCC=CCC=CCC=CCC=CCCCCC(=O)O.[Na] [6(Z), 9(Z), 12(Z), 15(Z)-Octadecatetraenoic acid]
5. O=C(NCCO[N+](=O)[O-])c1cccnc1
6. COc1ccc(CCN(C)CCCC(C#N)(c2cc(OC)c(OC)c(OC)c2)C(C)C)cc1OC.Cl (racemic)
7. CCOc1ccc2ccc(=O)oc2c1
8. CC(=O)Oc1ccc(C(c2ccc(OC(C)=O)cc2)c2ccccn2)cc1

-- reply
1. 101
2. 122
3. 87.6
4. 102
5. 107
6. 92.3
7. 103
8. 125

* * *

- Tested on: TDF;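 further: TDF denotes transformed human dermal fibroblasts of mesenchymal origin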
- TEST NAME: cell number relative to DMSO (% of DMSO); higher = more cells (less growth inhibition / toxicity)
- EXPERIMENTAL PARAMETERS: concentration: 10 µM; 24 h
Please go through the items and note down their cell number.
Answers are plain numbers.

COC1=CC(=O)CC(C)C12Oc1c(Cl)c(OC)cc(OC)c1C2=O (single isomer, unassigned; (+)) [(+)-Griseofulvin] :: 108
O=c1nc[nH]c2c1ncn2C1CCC(CO)O1 (configuration not stated) [Didanosine] :: 98.9
O=C1NC(=O)C(c2cnc3ccccn23)=C1c1cn2c3c(cc(F)cc13)CN(C(=O)N1CCCCC1)CC2 :: 63
c1cc(-c2sc(-c3ccncc3)c(-c3ccncc3)c2-c2ccncc2)ccn1 [4-[3,4,5-tri(4-pyridinyl)-2-thienyl]pyridine] :: 95.1

Please give cell number for each item listed below.
1. CCCCNc1ncc(C(=O)NCc2ccc(-n3ccnc3)cc2)c(NC2CCC(O)CC2)n1 (configuration not stated)
2. CS(=O)(=O)Nc1ccc(-c2coc3cc(OCc4cccc(C(=O)O)c4)ccc3c2=O)cc1
3. N#CC(=Cc1ccc(O)cc1)C(N)=C(C#N)C#N [Tyrphostin AG 112]
4. COc1cc(C2Oc3cc(C4Oc5cc(O)cc(O)c5C(=O)C4O)ccc3OC2CO)ccc1O (configuration not stated) [Silymarin]
5. O=C1OC(C(O)CO)C(O)=C1O (configuration not stated) [Ascorbic acid]
6. O=c1cc(-c2ccc(O)cc2)oc2cc(O)c(C3OC(CO)C(O)C(O)C3O)c(O)c12 (configuration not stated) [Isovitexin]
7. Cc1c(C)c2c(c(C)c1O)CCC(C)(C(=O)O)O2 (configuration not stated) [Trolox]

-- reply
63.4
109
109
93.6
103
109
101

Please give cell number for each item listed below.
1. CCCCCCCCCCCCCCCC(=O)NCCO [Palmitylethanolamide]
2. COc1ccc2c3c1OC1CC(O)C=CC31CCN(C)C2 (configuration not stated) [Galanthamine]
3. O=c1oc2c(O)c(O)cc3c(=O)oc4c(O)c(O)cc1c4c23 [Ellagic acid]
4. COC(=O)C(c1ccccc1Cl)N1CCc2sccc2C1 (configuration not stated) [Clopidogrel]
5. COc1ccccc1OCC(O)CN1CCN(CC(=O)Nc2c(C)cccc2C)CC1.Cl.Cl (configuration not stated) [Ranolazine.2HCl]
6. CCC=CCC=CCC=CCCCCCCCCCC(=O)O [Eicosatrienoic acid]

-- reply
1. 104
2. 110
3. 106
4. 79.7
5. 93.2
6. 96.7

Please give cell number for each item listed below.
1. CN1CCN(C2=Nc3cc(F)ccc3Cc3ccccc32)CC1 [Fluperlapine]
2. CC(=O)C1(O)Cc2c(O)c3c(c(O)c2C(OC2CC(N)C(O)C(C)O2)C1)C(=O)c1ccccc1C3=O (configuration not stated) [Idarubicin]
3. COc1ccc(COc2ccc(Cc3cnc(N)nc3N)cc2OC)cc1 [cFMS Receptor Tyrosine Kinase Inhibitor]
4. O=C1CSC(c2cccc(Br)c2)N1c1cc(Cl)ccc1O (configuration not stated)
5. CCC1OC(=O)C(C)C(OC2CC(C)(OC)C(O)C(C)O2)C(C)C(OC2OC(C)CC(N(C)C)C2O)C(C)(O)CC(C)CN(C)C(C)C(O)C1(C)O (configuration not stated) [Azithromycin]
6. CCCCOC(=O)NC(=O)C1c2ccccc2Oc2ccccc21 [butyl 9H-xanthen-9-ylcarbonylcarbamate]
7. CC#CCOC(=O)c1c(C)nc2sc3c(c2c1N)CCC(O)C3 (configuration not stated)
8. CC(C)NCC(O)COc1cccc2ccccc12 (stereo not drawn) [Propranolol S(-)]

-- reply
102
5.14
93.7
96.5
109
106
85.8
104

Please give cell number for each item listed below.
1. Cc1nc(C(=O)N2CCC[C@H]2Cc2nnc(-c3ccccc3)o2)c(-c2ccccc2F)s1
2. CCC1(O)CC2CN(CCc3c([nH]c4ccccc34)C(C(=O)OC)(c3cc4c(cc3OC)N(C)C3C(O)(C(=O)OC)C(OC(C)=O)C5(CC)C=CCN6CCC43C65)C2)C1.O=S(=O)(O)O (configuration not stated) [Vinblastine sulfate salt]
3. CNC(=O)C1OC(n2cnc3c(NCc4ccc(N)cc4)ncnc32)C(O)C1O (configuration not stated)
4. Cl.Cl.O=S(=O)(c1cccc2cnccc12)N1CCCNCC1
5. CC12CCC(=O)C=C1CCC1C2C(=O)CC2(C)C1CCC2(O)C(=O)CO (configuration not stated) [Cortisone]
6. O=c1cc(N2CCOCC2)oc2c(-c3ccccc3)cccc12
7. CCCCC(=O)O[C@]1(C(=O)CO)[C@@H](C)C[C@H]2[C@@H]3CCC4=CC(=O)C=C[C@]4(C)[C@@]3(F)[C@@H](O)C[C@@]21C

-- reply
1: 113; 2: 16.8; 3: 98.3; 4: 95; 5: 82; 6: 102; 7: 106

* * *

- System: HCC1569;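 further: TDF is a line of transformed human dermal fibroblasts of mesenchymal origin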
- TEST NAME: H1.0 immunofluorescence intensity relative to DMSO (% of DMSO); higher = stronger H1.0 induction, active = 140 or more
- EXPERIMENTAL PARAMETERS: concentration: 10 µM; 24 h
Respond with a class label; see Yes = active, No = inactive

COCCc1ccc(OCC(O)CNC(C)C)cc1.COCCc1ccc(OCC(O)CNC(C)C)cc1.O=C(O)C(O)C(O)C(=O)O (racemic) :: No
O=C(OC12CC3CC(CC(C3)C1)C2)c1ccc(NCc2cc(O)ccc2O)cc1 [1-adamantyl 4-[(2,5-dihydroxybenzyl)amino]benzoate] :: No

-- ask How was CCN(CC)CCCC(C)Nc1ccnc2cc(Cl)ccc12.O=P(O)(O)O.O=P(O)(O)O (stereo not given) [Chloroquine diphosphate] classified in this test?
-- reply No

-- ask Next: Cc1ccc(C(=O)c2cc(O)c(O)c([N+](=O)[O-])c2)cc1 [Tolcapone]
-- reply No

* * *

- System: TDF;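 further: TDF denotes transformed human dermal fibroblasts of mesenchymal origin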
- TEST NAME: cell number relative to DMSO (% of DMSO); higher = more cells (less growth inhibition / toxicity)
- EXPERIMENTAL PARAMETERS: concentration: 10 µM; 24 h
cell number vs 100: at or above is 1, below is 0.

COc1cc2ncn(-c3cc(OCc4ccccc4S(C)(=O)=O)c(C#N)s3)c2cc1OC [IKK-3 Inhibitor IX] :: 1

-- ask State whether the measured cell number reaches 100, counting equality as reaching it, for CN1CCCCC1CCN1c2ccccc2Sc2ccc(S(C)=O)cc21.O=S(=O)(O)c1ccccc1 (stereo not drawn) [Mesoridazine besylate]
-- reply 1

-- ask Next: Cc1cccc(Nc2ccccc2C(=O)O)c1C [Mefenamic acid]
-- reply 1

-- ask Next: CC1(C)CNc2cc(NC(=O)c3cccnc3NCc3ccncc3)ccc21 [Motesanib]
-- reply 0

* * *

- Test system: TDF;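 further: TDF denotes transformed human dermal fibroblasts of mesenchymal origin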
- TEST NAME: cell number relative to DMSO (% of DMSO); higher = more cells (less growth inhibition / toxicity)
- EXPERIMENTAL PARAMETERS: concentration: 10 µM; 24 h
Please go through the items and note down their cell number.

// worked examples, cell number included
NS(=O)(=O)c1cc(C(=O)O)c(NCc2ccco2)cc1Cl [Furosemide] :: 110
COc1ccc(C(=O)Nc2sc3c(c2C(N)=O)CCCC3)cc1OC [Flt-3 Inhibitor] :: 105
[Cl-].[Li+] [Lithium Chloride] :: 109
COc1ccccc1N1CCN(CCN2C(=O)CC3(CCCC3)CC2=O)CC1.Cl.Cl [BMY 7378 dihydrochloride] :: 98.9
Fc1ccc(-c2c3cccc(C(F)(F)F)c3nn2Cc2ccc(F)cc2Cl)cc1 :: 95.3
N=C(N)c1ccc(OCCCCCOc2ccc(C(=N)N)cc2)cc1.O=S([O-])OCCO.O=S([O-])OCCO [Pentamidine isethionate] :: 90.6

Could you now look at the following compound, please?
-- ask Report cell number for NC(=S)c1ccc[n+](C2OC(COP(=O)([O-])OP(=O)(O)OCC3OC(n4cnc5c(N)ncnc54)C(OP(=O)([O-])O)C3O)C(O)C2O)c1.[Na+] (configuration not stated) [Thio-NADP sodium] tested on TDF.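 Further: TDF denotes transformed human dermal fibroblasts of mesenchymal origin.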
-- reply 100
